Hello, the source for this data is PubChem BioAssay AID623920, in case you need it.

- target_or_test_system: RecBCD enzyme subunit RecC (Escherichia coli (strain K12)) + RecBCD enzyme subunit RecB (Escherichia coli (strain K12)) (UniProt P07648+P08394)
- Sequence (P07648 whole entry, looked up): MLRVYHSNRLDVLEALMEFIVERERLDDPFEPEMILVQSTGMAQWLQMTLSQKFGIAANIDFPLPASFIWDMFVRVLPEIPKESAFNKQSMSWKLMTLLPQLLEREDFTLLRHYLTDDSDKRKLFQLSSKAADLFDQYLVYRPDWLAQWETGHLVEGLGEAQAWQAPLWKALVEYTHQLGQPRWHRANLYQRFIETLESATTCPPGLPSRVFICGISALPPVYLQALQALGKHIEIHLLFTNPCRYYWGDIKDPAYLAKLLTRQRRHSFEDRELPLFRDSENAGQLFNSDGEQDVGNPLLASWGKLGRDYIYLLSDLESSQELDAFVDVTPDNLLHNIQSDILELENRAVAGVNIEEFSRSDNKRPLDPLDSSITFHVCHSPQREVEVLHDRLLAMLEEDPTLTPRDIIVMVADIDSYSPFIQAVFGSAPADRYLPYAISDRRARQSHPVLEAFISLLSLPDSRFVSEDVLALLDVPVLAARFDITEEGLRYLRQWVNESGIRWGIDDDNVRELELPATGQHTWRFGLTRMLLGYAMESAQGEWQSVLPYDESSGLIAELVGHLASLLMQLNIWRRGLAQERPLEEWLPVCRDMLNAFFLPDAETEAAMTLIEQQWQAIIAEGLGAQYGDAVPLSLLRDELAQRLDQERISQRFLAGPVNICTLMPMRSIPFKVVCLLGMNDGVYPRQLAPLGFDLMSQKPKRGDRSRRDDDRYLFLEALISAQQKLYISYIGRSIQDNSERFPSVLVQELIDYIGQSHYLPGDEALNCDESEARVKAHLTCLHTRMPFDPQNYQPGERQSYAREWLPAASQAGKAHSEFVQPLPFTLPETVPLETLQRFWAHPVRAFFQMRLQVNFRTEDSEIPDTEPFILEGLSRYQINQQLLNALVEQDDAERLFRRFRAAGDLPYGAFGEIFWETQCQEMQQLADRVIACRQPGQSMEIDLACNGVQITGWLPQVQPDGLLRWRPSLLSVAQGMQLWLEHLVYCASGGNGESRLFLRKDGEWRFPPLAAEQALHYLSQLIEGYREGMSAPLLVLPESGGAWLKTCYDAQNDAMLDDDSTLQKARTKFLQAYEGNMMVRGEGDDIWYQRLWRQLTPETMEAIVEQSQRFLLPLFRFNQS
- Sequence (P08394 whole entry, looked up): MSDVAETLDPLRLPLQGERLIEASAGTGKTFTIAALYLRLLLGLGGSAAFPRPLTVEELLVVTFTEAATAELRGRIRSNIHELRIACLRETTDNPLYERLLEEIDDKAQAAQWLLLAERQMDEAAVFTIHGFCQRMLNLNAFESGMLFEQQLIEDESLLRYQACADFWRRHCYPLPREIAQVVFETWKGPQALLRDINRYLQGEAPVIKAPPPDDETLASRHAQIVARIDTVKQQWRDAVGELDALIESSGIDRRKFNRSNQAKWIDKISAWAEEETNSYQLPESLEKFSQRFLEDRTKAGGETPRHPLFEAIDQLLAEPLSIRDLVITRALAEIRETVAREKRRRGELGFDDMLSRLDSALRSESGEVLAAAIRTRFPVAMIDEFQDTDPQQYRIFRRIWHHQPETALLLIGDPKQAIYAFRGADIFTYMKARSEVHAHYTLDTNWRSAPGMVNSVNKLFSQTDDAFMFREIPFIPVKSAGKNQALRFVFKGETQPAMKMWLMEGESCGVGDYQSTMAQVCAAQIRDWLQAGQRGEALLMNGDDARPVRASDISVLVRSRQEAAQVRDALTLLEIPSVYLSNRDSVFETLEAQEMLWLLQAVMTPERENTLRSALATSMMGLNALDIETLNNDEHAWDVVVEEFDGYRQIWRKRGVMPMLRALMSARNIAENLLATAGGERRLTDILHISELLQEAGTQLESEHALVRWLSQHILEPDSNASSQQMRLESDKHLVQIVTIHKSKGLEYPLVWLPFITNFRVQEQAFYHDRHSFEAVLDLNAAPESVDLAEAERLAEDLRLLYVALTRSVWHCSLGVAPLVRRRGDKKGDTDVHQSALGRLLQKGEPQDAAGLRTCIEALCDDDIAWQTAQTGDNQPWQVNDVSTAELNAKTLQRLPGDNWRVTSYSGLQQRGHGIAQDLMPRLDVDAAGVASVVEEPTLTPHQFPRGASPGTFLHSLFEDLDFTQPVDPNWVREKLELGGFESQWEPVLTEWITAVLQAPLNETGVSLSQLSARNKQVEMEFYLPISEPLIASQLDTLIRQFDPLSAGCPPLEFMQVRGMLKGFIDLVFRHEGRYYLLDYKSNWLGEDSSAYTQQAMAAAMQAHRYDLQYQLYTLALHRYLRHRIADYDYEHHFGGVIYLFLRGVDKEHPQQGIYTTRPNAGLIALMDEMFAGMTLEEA
- assay: RecBCD dsDNA exonuclease inhibition potency – biochemical, radioactivity readout, powder samples, counter-screen for AddAB inhibitor project, dose response (AID 623920)
- test_context: purified RecBCD, [3H] dsDNA nuclease, TCA-soluble radioactivity
The source made the active and inactive calls.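 How the source made its calls: active means compounds halving RecBCD DNA-cutting activity at 52000 nM or lower IC50; inactive means the rest.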
Classes used: 1 = active, -1 = inactive

molecule	cat
CCn1cc(C(=O)O)c(=O)c2cnc(N3CCN(C(=S)NC4CC5CCC4C5)CC3)nc21 (centres undefined)	-1
O=C(Nc1ncccn1)c1ccc([N+](=O)[O-])o1	-1
N#Cc1c(NC(=O)c2ccc(-c3ccccc3[N+](=O)[O-])o2)sc2c1CCCC2	-1
CCn1cc(C(=O)O)c(=O)c2cc(F)c(N3CCN(C(=S)Nc4ccccc4C(F)(F)F)CC3)cc21	1
O=C(Nc1cccc(NC(=O)c2ccccc2Cl)c1)c1ccc([N+](=O)[O-])o1	-1
Cc1ccc2nc(/C(C#N)=C\c3ccc([N+](=O)[O-])o3)[nH]c2c1	-1
C=CCn1c(Sc2ncc([N+](=O)[O-])s2)n[nH]c1=O	-1
CNC(=O)c1c(NC(=O)c2nc(SCc3ccccc3)ncc2Cl)sc2c1CCCC2	-1
N#Cc1c(NC(=O)c2ccc([N+](=O)[O-])o2)sc2c1CCC2	1
N#Cc1c(NC(=O)c2cccc(F)c2)sc2c1CCCC2	-1
Cc1sc(NC(=O)c2ccc(Br)o2)c(C#N)c1C	1
CC(=O)Nc1ccc2nc(NC(=O)c3ccc([N+](=O)[O-])o3)sc2c1	-1
N#Cc1c(NC(=O)c2ccccc2C(=O)O)sc2c1CCCC2	-1
CCn1cc(C(=O)O)c(=O)c2cnc(N3CCN(C(=S)Nc4ccc(Cl)cc4)CC3)nc21	1
CCn1cc(C(=O)O)c(=O)c2cc(F)c(N3CCN(C(=S)Nc4cccc(C(F)(F)F)c4)CC3)cc21	1
N#Cc1c(NC(=O)c2ccco2)sc2c1CCC2	-1
NC(=O)c1ccsc1NC(=O)COC(=O)c1ccc([N+](=O)[O-])o1	-1
CC1(C)Cc2c(sc(NC(=O)c3ccco3)c2C#N)CO1	-1
CCn1cc(C(=O)O)c(=O)c2cnc(N3CCN(C(=S)NC(C)c4ccccc4)CC3)nc21 (centres undefined)	1
N#Cc1c(NC(=O)c2ccccc2)sc2c1CCC2	-1
CCn1cc(C(=O)O)c(=O)c2cnc(N3CCN(C(=S)NC(=O)c4cccc(C)c4)CC3)nc21	1
Cc1cccnc1NC(=O)c1ccc([N+](=O)[O-])o1	-1
CCn1cc(C(=O)O)c(=O)c2cnc(N3CCN(C(=S)Nc4cccc(C(F)(F)F)c4)CC3)nc21	1
O=C(Nc1ccc(N2CCOCC2)cc1)c1ccc([N+](=O)[O-])o1	-1
Cc1ccc(C(=O)Nc2sc3c(c2C#N)CCCCC3)o1	-1
COC(=O)c1c(-c2ccccc2)csc1NC(=O)c1cnccn1	1
O=C(NCc1cccnc1)c1ccc([N+](=O)[O-])o1	-1
CCn1cc(C(=O)O)c(=O)c2cnc(N3CCN(C(=S)NCc4ccccc4)CC3)nc21	1
O=C(OCC(=O)c1cccs1)c1ccc([N+](=O)[O-])o1	-1
